- TGT: T1, biotinylated full-length human HGF (human, UniProt P14210 32-728, biotinylated with a succinimidyl biotin labeling kit (sites not given))
- T1 construct: also called biotinylated HGF; biotinylated hHGF
- EXPERIMENT DESCRIPTION: SPR, Biacore T200, biotinylated HGF on CAP chip, peptide injected, single cycle kinetics
Positions of bridges follow the written chain, without caps; N, C: chain ends. Non-standard residues stand in square brackets, D forms with d. No end group written: not given here.
METRIC NAME: Kd (nM)

INSERT INTO results (binder, metric_name, observed_measurement) VALUES
  ('{CH2CO}-[dW]PLSKWWYSKRC (thioether N-12 (inferred), a C-terminal tail (X'')r or amide after Cys is not known) [cyclic peptide HiP-8]', 'Kd', 0.4);

A: {CH2CO}-[dW]KFRISKWYKC (thioether N-11 (inferred), C-terminal tail after Cys not known (drawing)) [cyclic peptide HiP-12]
B: {CH2CO}-[dW]IFKISKWYKC (thioether N-11 (inferred), C-terminal tail after Cys not known (drawing)) [cyclic peptide HiP-13]
Of A and B , whose reported Kd is the larger number? Give the chosen item's label as your response.
A
